The origin of these recorded values is paper PMC10350928.

So I've got a bunch of compounds here, and I need their ADP-Glo assay LLE WT values.
- target_desc: WT c-MET (Homo sapiens, UniProt P08581)
- Sequence (P08581 25-1390): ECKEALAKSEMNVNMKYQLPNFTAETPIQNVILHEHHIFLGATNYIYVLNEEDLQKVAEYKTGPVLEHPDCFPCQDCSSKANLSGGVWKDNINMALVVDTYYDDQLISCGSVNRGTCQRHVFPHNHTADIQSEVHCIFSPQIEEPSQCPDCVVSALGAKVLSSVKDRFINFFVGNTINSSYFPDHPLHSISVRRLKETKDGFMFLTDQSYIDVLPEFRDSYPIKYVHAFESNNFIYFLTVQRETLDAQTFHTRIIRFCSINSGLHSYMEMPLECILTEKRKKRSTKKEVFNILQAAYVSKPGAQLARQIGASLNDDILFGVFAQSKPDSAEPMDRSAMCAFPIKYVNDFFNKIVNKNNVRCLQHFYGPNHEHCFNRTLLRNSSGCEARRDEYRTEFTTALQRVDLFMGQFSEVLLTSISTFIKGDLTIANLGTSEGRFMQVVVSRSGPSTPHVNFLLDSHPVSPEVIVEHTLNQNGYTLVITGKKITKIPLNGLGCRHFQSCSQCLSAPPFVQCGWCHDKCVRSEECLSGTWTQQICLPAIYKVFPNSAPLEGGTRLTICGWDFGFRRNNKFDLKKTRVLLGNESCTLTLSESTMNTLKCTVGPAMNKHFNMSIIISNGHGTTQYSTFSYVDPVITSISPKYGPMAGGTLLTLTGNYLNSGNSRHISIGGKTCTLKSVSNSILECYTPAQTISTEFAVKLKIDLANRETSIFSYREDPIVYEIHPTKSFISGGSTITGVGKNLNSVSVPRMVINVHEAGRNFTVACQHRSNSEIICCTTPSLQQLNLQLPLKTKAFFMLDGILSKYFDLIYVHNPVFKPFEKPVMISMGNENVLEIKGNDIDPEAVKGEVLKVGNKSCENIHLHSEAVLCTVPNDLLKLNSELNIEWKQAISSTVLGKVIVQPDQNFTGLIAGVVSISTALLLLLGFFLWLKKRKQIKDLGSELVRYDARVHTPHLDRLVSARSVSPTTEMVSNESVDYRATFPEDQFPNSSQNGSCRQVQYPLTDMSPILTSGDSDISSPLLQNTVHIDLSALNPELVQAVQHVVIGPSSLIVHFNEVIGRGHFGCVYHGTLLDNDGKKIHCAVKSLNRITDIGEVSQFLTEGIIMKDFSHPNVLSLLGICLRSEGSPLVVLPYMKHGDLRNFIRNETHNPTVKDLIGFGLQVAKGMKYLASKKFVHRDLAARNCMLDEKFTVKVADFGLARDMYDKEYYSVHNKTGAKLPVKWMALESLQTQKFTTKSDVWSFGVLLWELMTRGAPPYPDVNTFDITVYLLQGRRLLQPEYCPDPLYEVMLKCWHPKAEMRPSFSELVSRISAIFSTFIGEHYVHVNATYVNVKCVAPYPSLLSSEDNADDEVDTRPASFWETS
- Assay type: biochemical
- test_parameters: Table 3; LLE = pIC50 – log D

# query: ADP-Glo assay LLE WT of entry C#Cc1n[nH]c2c(-c3cn(C(C)c4ccccc4)c(=O)[nH]c3=O)cccc12 (centres unmarked) [Compound 28]
4.2

For the compound CC(c1ccc(F)cc1)n1cc(-c2cc(F)cc3c(C#N)n[nH]c23)c(=O)[nH]c1=O (centres unmarked) [Compound 24] , what ADP-Glo assay LLE WT is on record?
3.4

Name the recorded ADP-Glo assay LLE WT for CC(c1ccc(F)cc1)n1cc(-c2cc(F)cc3cn[nH]c23)c(=O)[nH]c1=O (centres unmarked) [Compound 26] .
3.5

For the compound shown here, C#Cc1n[nH]c2c(-c3cn([C@@H](C)c4ccccn4)c(=O)[nH]c3=O)cc(F)cc12 [Compound 32] , give the reported ADP-Glo assay LLE WT.
5.1

Query: ADP-Glo assay LLE WT; subject: C[C@@H](c1ccc(F)cc1)n1cc(-c2cc(F)cc3c(C#N)n[nH]c23)c(=O)[nH]c1=O [Compound 25]
3.8

What value of measured ADP-Glo assay LLE WT is listed for CC(c1ccccn1)n1cc(-c2cc(F)cc3c(C#N)n[nH]c23)c(=O)[nH]c1=O (centres unmarked) [Compound 23] ?
3.8

Given the entry C[C@@H](c1ccc(F)cc1)n1cc(-c2cc(F)cc3cn[nH]c23)c(=O)[nH]c1=O [Compound 27] , report its measured ADP-Glo assay LLE WT.
4.1

Reported ADP-Glo assay LLE WT, compound C#Cc1n[nH]c2c(-c3cn(C(C)c4ccccn4)c(=O)[nH]c3=O)cc(F)cc12 (centres unmarked) [Compound 31] : ____
4.8

----------
Consider the following compounds; for each one, report its SPR assay LLE WT.
- target_desc: WT c-MET (Homo sapiens)
- Assay type: binding
- test_parameters: Table 1; LLE = pKd – log D

Data request, read-out SPR assay LLE WT, for `O=c1[nH]c(=O)n(Cc2ccccc2)cc1-c1cc(F)cc(F)c1`
<1.0/<1.0

Which SPR assay LLE WT reading was recorded for the compound CC(c1cccc(-c2cc[nH]n2)c1)n1cc(-c2cc(F)cc(F)c2)c(=O)[nH]c1=O (stereo not shown) ?
2.1

# get_value(readout='SPR assay LLE WT', item= CC(c1cccc(-c2c[nH]cn2)c1)n1cc(-c2cc(F)cc(F)c2)c(=O)[nH]c1=O (stereo not shown) )
3.1

# query: SPR assay LLE WT of entry CC(c1cccc(-c2c[nH]cn2)c1)n1cc(-c2cccc3cn[nH]c23)c(=O)[nH]c1=O (stereo not shown)
4.1

----------
- Test system: Human hepatocytes
- assay_comment: Human hepatocyte Clint
- test_parameters: Table 4
value_type: Hepatocytes Human (μL/min/10^6 cells)
Just the number please, in μL/min/10^6 cells, no unit attached.

Recorded Hepatocytes Human of C#Cc1n[nH]c2c(-c3cn(C(C)c4ccccn4)c(=O)[nH]c3=O)cc(F)cc12 (stereo not shown) [Compound 31] , please.
1.29

What value of Hepatocytes Human has been recorded for this entry: C[C@@H](c1ccc(F)cc1)n1cc(-c2cc(F)cc3cn[nH]c23)c(=O)[nH]c1=O [Compound 27]
1.81

Quick one: Hepatocytes Human for C[C@@H](c1ccc(F)cc1)n1cc(-c2cc(F)cc3c(C#N)n[nH]c23)c(=O)[nH]c1=O [Compound 25] ?
2.48

Query (molecule): C#Cc1n[nH]c2c(-c3cn(C(C)c4ccccc4)c(=O)[nH]c3=O)cc(F)cc12 (stereo not shown) [Compound 29] ; field requested: Hepatocytes Human
4.27

----------
- Tested on: Rat hepatocytes
- assay_comment: Rat hepatocyte Clint
- test_parameters: Table 1; rat hepatocytes
Mark rule met only for RH values smaller than 50 μL/min/10^6 cells; exact matches and larger values are rule not met.

Take the compound CC(c1ccccc1)n1cc(-c2ncccn2)c(=O)[nH]c1=O (stereo not shown) and say whether its RH is less than 50 μL/min/10^6 cells.
rule met

is_below(RH, 50 μL/min/10^6 cells) for CC(c1ccccc1)n1cc(-c2ccccn2)c(=O)[nH]c1=O (stereo not shown) ?
rule not met

Below 50 μL/min/10^6 cells on RH? Entry CC(c1cccc(-c2c[nH]cn2)c1)n1cc(-c2cc(F)cc(F)c2)c(=O)[nH]c1=O (stereo not shown)
rule met

Please determine if CC(c1cccc(-c2cn[nH]c2)c1)n1cc(-c2cc(F)cc(F)c2)c(=O)[nH]c1=O (stereo not shown) is below 50 μL/min/10^6 cells in terms of RH.
rule met

API: query returns whether the compound falls strictly under 50 μL/min/10^6 cells in RH. Query: CC(c1cccc(Cl)c1)n1cc(-c2cc(F)cc(F)c2)c(=O)[nH]c1=O (stereo not shown)
rule not met

Quick check: RH of CC(c1ccccc1)n1cc(-c2cccc3cn[nH]c23)c(=O)[nH]c1=O (stereo not shown) under 50 μL/min/10^6 cells?
rule met

Say whether its RH is strictly beneath 50 μL/min/10^6 cells. Entry: CC(c1ccccc1)n1cc(-c2ccccc2)c(=O)[nH]c1=O (stereo not shown)
rule not met

----------
I'd be grateful if you could share measured RH for these entries.
- System: Rat hepatocytes
- assay_comment: Rat hepatocyte Clint
- test_parameters: Table 1; rat hepatocytes
Write the quantity with the unit trailing the number.

Name the reported RH value associated with the compound `O=c1[nH]c(=O)n(Cc2ccccc2)cc1-c1cc(F)cc(F)c1`
76.7 μL/min/10^6 cells

Need RH of CC(c1ccccc1)n1cc(-c2cc(F)cc(F)c2)c(=O)[nH]c1=O (centres unmarked) , thanks.
123 μL/min/10^6 cells

Which RH reading was recorded for the compound CC(c1cccc(-c2c[nH]cn2)c1)n1cc(-c2cccc3cn[nH]c23)c(=O)[nH]c1=O (centres unmarked) ?
5.84 μL/min/10^6 cells

// RH lookup, key: `C[C@@H](c1ccccc1)n1cc(-c2cc(F)cc(F)c2)c(=O)[nH]c1=O`
133 μL/min/10^6 cells

Tell me the measured RH of CC(c1ccccc1Cl)n1cc(-c2cc(F)cc(F)c2)c(=O)[nH]c1=O (centres unmarked) , please.
227 μL/min/10^6 cells

# input compound: CC(c1ccc(F)cc1)n1cc(-c2cc(F)cc(F)c2)c(=O)[nH]c1=O (centres unmarked) ; wanted: its RH
26.8 μL/min/10^6 cells

Sample CC(c1cccc(-c2cc[nH]n2)c1)n1cc(-c2cc(F)cc(F)c2)c(=O)[nH]c1=O (centres unmarked) — what was its RH?
24.7 μL/min/10^6 cells

What RH value was documented for this compound, CC(c1ccccc1)n1cc(-c2ccc3[nH]ccc3c2)c(=O)[nH]c1=O (centres unmarked) ?
217 μL/min/10^6 cells

----------
Give Hepatocytes Rat for every item shown.
- Test system: Rat hepatocytes
- assay_comment: Rat hepatocyte Clint
- test_parameters: Table 4
Give just the number in μL/min/10^6 cells; leave the unit off.

What value of Hepatocytes Rat has been reported for the following compound? C#Cc1n[nH]c2c(-c3cn(C(C)c4ccccn4)c(=O)[nH]c3=O)cc(F)cc12 (stereo not shown)
4.81

Field request: Hepatocytes Rat | item: `C[C@@H](c1ccc(F)cc1)n1cc(-c2cc(F)cc3cn[nH]c23)c(=O)[nH]c1=O`
14.8

Fill blank: measured Hepatocytes Rat of the compound C#Cc1n[nH]c2c(-c3cn(C(C)c4ccccc4)c(=O)[nH]c3=O)cc(F)cc12 (stereo not shown) is ____.
5.99

Given `C[C@@H](c1ccc(F)cc1)n1cc(-c2cc(F)cc3c(C#N)n[nH]c23)c(=O)[nH]c1=O` , state its recorded Hepatocytes Rat.
5.13

----------
- assay_comment: Rat plasma pharmacokinetics
- test_parameters: male, Han Wistar, iv, 0.5 mg/kg
Consider the following compounds; for each one, report its clearance.
Form entry: value (mL/min/kg) — number only.

Data request, read-out clearance, for `C[C@@H](c1ccc(F)cc1)n1cc(-c2cc(F)cc3c(C#N)n[nH]c23)c(=O)[nH]c1=O`
3

Which clearance is listed for C#Cc1n[nH]c2c(-c3cn(C(C)c4ccccn4)c(=O)[nH]c3=O)cc(F)cc12 (stereo not shown) ?
13

Which measured clearance value corresponds to `C[C@@H](c1ccc(F)cc1)n1cc(-c2cc(F)cc3cn[nH]c23)c(=O)[nH]c1=O` ?
74

Which value of clearance has been reported for C#Cc1n[nH]c2c(-c3cn(C(C)c4ccccc4)c(=O)[nH]c3=O)cc(F)cc12 (stereo not shown) in the records?
60

----------
Would you mind telling me the reported RH of each entry?
- Test system: Rat hepatocytes
- assay_comment: Rat hepatocyte Clint
- test_parameters: Table 3; rat hepatocytes
Unit μL/min/10^6 cells implied. Number only.

Give the measured RH of C#Cc1n[nH]c2c(-c3cn(C(C)c4ccccc4)c(=O)[nH]c3=O)cccc12 (stereo not shown) [Compound 28] .
9.10

Field request: RH | item: C[C@@H](c1ccc(F)cc1)n1cc(-c2cc(F)cc3cn[nH]c23)c(=O)[nH]c1=O [Compound 27]
14.8

Fill blank: measured RH of the molecule C#Cc1n[nH]c2c(-c3cn([C@@H](C)c4ccccc4)c(=O)[nH]c3=O)cc(F)cc12 [Compound 30] is ____.
15.0

Would you mind telling me what RH value was observed for C#Cc1n[nH]c2c(-c3cn(C(C)c4ccccn4)c(=O)[nH]c3=O)cc(F)cc12 (stereo not shown) [Compound 31] ?
4.81

Consider the molecule C[C@@H](c1ccc(F)cc1)n1cc(-c2cc(F)cc3c(C#N)n[nH]c23)c(=O)[nH]c1=O [Compound 25] and give its measured RH.
5.13

So what's the measured RH for this one? CC(c1ccccn1)n1cc(-c2cc(F)cc3c(C#N)n[nH]c23)c(=O)[nH]c1=O (stereo not shown) [Compound 23]
3.08

Would you kindly share the measured RH for CC(c1ccc(F)cc1)n1cc(-c2cc(F)cc3c(C#N)n[nH]c23)c(=O)[nH]c1=O (stereo not shown) [Compound 24] ?
4.40

Bench note: what RH did C#Cc1n[nH]c2c(-c3cn([C@@H](C)c4ccccn4)c(=O)[nH]c3=O)cc(F)cc12 [Compound 32] show?
6.07

Can you look up the measured RH of C#Cc1n[nH]c2c(-c3cn(C(C)c4ccccc4)c(=O)[nH]c3=O)cc(F)cc12 (stereo not shown) [Compound 29] for me?
5.99

Fill in: RH of CC(c1ccc(F)cc1)n1cc(-c2cc(F)cc3cn[nH]c23)c(=O)[nH]c1=O (stereo not shown) [Compound 26] is ___
11.9
